System: HSSY-II tumor spheroid viability
test method notes: Anticancer human tumor HSSY-II cell line growth inhibition; active = viability on the fitted dose curve at most 10% of control; inactive = the rest
test parameters: second compound 0.0003 µM; first compound 1 µM; spheroids with HUVEC and MSC
Possible outcomes: active, inactive

[
  {
    "compound": "CC1COCCN1c1cc(-c2ccnn2C)c2ccnc(-c3ccn[nH]3)c2n1 (stereo unspecified) + COc1cc2c(cc1O)CCNC21CSC2c3c(OC(C)=O)c(C)c4c(c3C(COC1=O)N1C(O)C3Cc5cc(C)c(OC)c(O)c5C(C21)N3C)OCO4",
    "assigned class": "active"
  },
  {
    "compound": "[2H]c1nc(C)nc([2H])c1-c1cc(NC[C@@H](C)c2cccc3c(C(=O)NC)ccnc23)ncn1 + COc1cc2c(cc1O)CCNC21CSC2c3c(OC(C)=O)c(C)c4c(c3C(COC1=O)N1C(O)C3Cc5cc(C)c(OC)c(O)c5C(C21)N3C)OCO4",
    "assigned class": "inactive"
  },
  {
    "compound": "COc1ccc([C@@H](O)c2cc(-c3ncnc4cc(N5CCOCC5)ccc34)c(F)cc2Cl)nn1 + COc1cc2c(cc1O)CCNC21CSC2c3c(OC(C)=O)c(C)c4c(c3C(COC1=O)N1C(O)C3Cc5cc(C)c(OC)c(O)c5C(C21)N3C)OCO4",
    "assigned class": "active"
  },
  {
    "compound": "COc1cc(C)[nH]c(=O)c1CN1CCc2c(Cl)cc(C(OC)C3COC3)c(Cl)c2C1=O (stereo unspecified) + COc1cc2c(cc1O)CCNC21CSC2c3c(OC(C)=O)c(C)c4c(c3C(COC1=O)N1C(O)C3Cc5cc(C)c(OC)c(O)c5C(C21)N3C)OCO4",
    "assigned class": "inactive"
  },
  {
    "compound": "CC(C)n1c(=O)n(C)c2cnc3cc(F)c(-c4ccc(OCCCN5CCCCC5)nc4)cc3c21 + COc1cc2c(cc1O)CCNC21CSC2c3c(OC(C)=O)c(C)c4c(c3C(COC1=O)N1C(O)C3Cc5cc(C)c(OC)c(O)c5C(C21)N3C)OCO4",
    "assigned class": "inactive"
  },
  {
    "compound": "Cc1cc(C)c(CNC(=O)c2cc(-c3ccc(CN4CCOCC4)cc3)cc3c2cnn3C2CCCC2)c(=O)[nH]1 + COc1cc2c(cc1O)CCNC21CSC2c3c(OC(C)=O)c(C)c4c(c3C(COC1=O)N1C(O)C3Cc5cc(C)c(OC)c(O)c5C(C21)N3C)OCO4",
    "assigned class": "inactive"
  }
]

====

System: HSSY-II tumor spheroid viability
test method notes: Anticancer human tumor HSSY-II cell line growth inhibition;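 also: spheroids exposed to compounds for seven days before reading; percent of DMSO vehicle control viability so 100% = untreated level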
test parameters: second compound 3.16 µM; first compound 3 µM; stronger effect = lower value; spheroids with HUVEC and MSC
Measured viability, T/C values are reported for all entries that follow.

[
  {
    "molecule": "Cc1sc2c(c1C)C(c1ccc(Cl)cc1)=NC(CC(=O)Nc1ccc(O)cc1)c1nnc(C)n1-2 (centres undefined) + Cn1nnc2c(C(N)=O)ncn2c1=O",
    "viability, T/C, %": 12
  },
  {
    "molecule": "Cn1ncnc1[C@H]1c2n[nH]c(=O)c3cc(F)cc(c23)N[C@@H]1c1ccc(F)cc1 + Cn1nnc2c(C(N)=O)ncn2c1=O",
    "viability, T/C, %": 8.35
  },
  {
    "molecule": "O=C(c1cc(Cc2n[nH]c(=O)c3ccccc23)ccc1F)N1CCN(C(=O)C2CC2)CC1 + Cn1nnc2c(C(N)=O)ncn2c1=O",
    "viability, T/C, %": 54.8
  },
  {
    "molecule": "CNCc1ccc(-c2cc(-c3nc(-c4ccc(S(=O)(=O)C(C)C)cc4)cnc3N)on2)cc1 + Cn1nnc2c(C(N)=O)ncn2c1=O",
    "viability, T/C, %": 0.11
  }
]

====

Tested on: HSSY-II tumor spheroid viability
test method notes: Anticancer human tumor HSSY-II cell line growth inhibition;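 also: spheroids exposed to compounds for seven days before reading; percent of DMSO vehicle control viability so 100% = untreated level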
test parameters: second compound 0.000949 µM; first compound 0.316 µM; stronger effect = lower value; spheroids with HUVEC and MSC
Measured viability, T/C values are reported for all entries that follow.
attribute measured: viability, T/C (%)

[
  {
    "compound": "Cc1cc(C)c(CNC(=O)c2cc(-c3ccc(CN4CCOCC4)cc3)cc3c2cnn3C2CCCC2)c(=O)[nH]1 + COc1cc2c(cc1O)CCNC21CSC2c3c(OC(C)=O)c(C)c4c(c3C(COC1=O)N1C(O)C3Cc5cc(C)c(OC)c(O)c5C(C21)N3C)OCO4",
    "attribute measured": "viability, T/C",
    "numeric readout": 2.16
  },
  {
    "compound": "CC1COCCN1c1cc(-c2ccnn2C)c2ccnc(-c3ccn[nH]3)c2n1 (centres undefined) + COc1cc2c(cc1O)CCNC21CSC2c3c(OC(C)=O)c(C)c4c(c3C(COC1=O)N1C(O)C3Cc5cc(C)c(OC)c(O)c5C(C21)N3C)OCO4",
    "attribute measured": "viability, T/C",
    "numeric readout": 1.51
  },
  {
    "compound": "[2H]c1nc(C)nc([2H])c1-c1cc(NC[C@@H](C)c2cccc3c(C(=O)NC)ccnc23)ncn1 + COc1cc2c(cc1O)CCNC21CSC2c3c(OC(C)=O)c(C)c4c(c3C(COC1=O)N1C(O)C3Cc5cc(C)c(OC)c(O)c5C(C21)N3C)OCO4",
    "attribute measured": "viability, T/C",
    "numeric readout": 3.44
  },
  {
    "compound": "COc1ccc([C@@H](O)c2cc(-c3ncnc4cc(N5CCOCC5)ccc34)c(F)cc2Cl)nn1 + COc1cc2c(cc1O)CCNC21CSC2c3c(OC(C)=O)c(C)c4c(c3C(COC1=O)N1C(O)C3Cc5cc(C)c(OC)c(O)c5C(C21)N3C)OCO4",
    "attribute measured": "viability, T/C",
    "numeric readout": 0.85
  }
]

====

Tested on: HSSY-II tumor spheroid viability
test method notes: Anticancer human tumor HSSY-II cell line growth inhibition;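 also: spheroids exposed to compounds for seven days before reading; percent of DMSO vehicle control viability so 100% = untreated level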
test parameters: second compound 31.6 µM; first compound 3.16 µM; stronger effect = lower value; spheroids with HUVEC and MSC
Response field label takes true (1) when viability, T/C is strictly below 70% and false (0) in all other cases.

[
  {
    "compound": "CC1COCCN1c1cc(-c2ccnn2C)c2ccnc(-c3ccn[nH]3)c2n1 (stereo unspecified) + Cn1nnc2c(C(N)=O)ncn2c1=O",
    "assigned class": "true (1)"
  },
  {
    "compound": "[2H]c1nc(C)nc([2H])c1-c1cc(NC[C@@H](C)c2cccc3c(C(=O)NC)ccnc23)ncn1 + Cn1nnc2c(C(N)=O)ncn2c1=O",
    "assigned class": "false (0)"
  },
  {
    "compound": "Cc1cc(C)c(CNC(=O)c2cc(-c3ccc(CN4CCOCC4)cc3)cc3c2cnn3C2CCCC2)c(=O)[nH]1 + Cn1nnc2c(C(N)=O)ncn2c1=O",
    "assigned class": "false (0)"
  },
  {
    "compound": "COc1cc(C)[nH]c(=O)c1CN1CCc2c(Cl)cc(C(OC)C3COC3)c(Cl)c2C1=O (stereo unspecified) + Cn1nnc2c(C(N)=O)ncn2c1=O",
    "assigned class": "true (1)"
  },
  {
    "compound": "COc1ccc([C@@H](O)c2cc(-c3ncnc4cc(N5CCOCC5)ccc34)c(F)cc2Cl)nn1 + Cn1nnc2c(C(N)=O)ncn2c1=O",
    "assigned class": "true (1)"
  }
]

====

Test system: HSSY-II tumor spheroid viability
test method notes: Anticancer human tumor HSSY-II cell line growth inhibition; active = viability on the fitted dose curve at most 10% of control; inactive = the rest;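 also: spheroids exposed to compounds for seven days before reading; percent of DMSO vehicle control viability so 100% = untreated level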
test parameters: second compound 3.16 µM; first compound 0.1 µM; spheroids with HUVEC and MSC
Possible outcomes: class 1 = active, class 0 = inactive

[
  {
    "compound": "CC(C)n1c(=O)n(C)c2cnc3cc(F)c(-c4ccc(OCCCN5CCCCC5)nc4)cc3c21 + Cn1nnc2c(C(N)=O)ncn2c1=O",
    "assigned class": "class 0"
  },
  {
    "compound": "COc1cc(C)[nH]c(=O)c1CN1CCc2c(Cl)cc(C(OC)C3COC3)c(Cl)c2C1=O (stereo unspecified) + Cn1nnc2c(C(N)=O)ncn2c1=O",
    "assigned class": "class 0"
  },
  {
    "compound": "CC1COCCN1c1cc(-c2ccnn2C)c2ccnc(-c3ccn[nH]3)c2n1 (stereo unspecified) + Cn1nnc2c(C(N)=O)ncn2c1=O",
    "assigned class": "class 1"
  },
  {
    "compound": "[2H]c1nc(C)nc([2H])c1-c1cc(NC[C@@H](C)c2cccc3c(C(=O)NC)ccnc23)ncn1 + Cn1nnc2c(C(N)=O)ncn2c1=O",
    "assigned class": "class 0"
  },
  {
    "compound": "COc1ccc([C@@H](O)c2cc(-c3ncnc4cc(N5CCOCC5)ccc34)c(F)cc2Cl)nn1 + Cn1nnc2c(C(N)=O)ncn2c1=O",
    "assigned class": "class 0"
  },
  {
    "compound": "Cc1cc(C)c(CNC(=O)c2cc(-c3ccc(CN4CCOCC4)cc3)cc3c2cnn3C2CCCC2)c(=O)[nH]1 + Cn1nnc2c(C(N)=O)ncn2c1=O",
    "assigned class": "class 0"
  }
]
